# system-under-test: DR4 molecules (Homo sapiens, UniProt P01903+P01911, A100K/A169T/F76Y/I96L/K127E/L162R/M171V/N62H/P40V/Q125Y/R42H/S133A/S149N/S66Y/V115G/V209L/W38E)
# protocol-summary: standard DR4-peptide fluorescent binding assay
# condition-details: read-out: peptide binding: concentration of peptide giving 50% inhibition of a standard DR4-peptide fluorescent binding assay
metric: pIC50
The read-out pIC50 is expressed as -log10 of concentration in moles per litre.

query: Give the reported value of pIC50 for this record: VNFFRMVISNPAATHQD [GAD 554-570]
result: 6.22
